- Study Target: Btk (Homo sapiens, UniProt Q06187)
- Sequence (Q06187 2-659): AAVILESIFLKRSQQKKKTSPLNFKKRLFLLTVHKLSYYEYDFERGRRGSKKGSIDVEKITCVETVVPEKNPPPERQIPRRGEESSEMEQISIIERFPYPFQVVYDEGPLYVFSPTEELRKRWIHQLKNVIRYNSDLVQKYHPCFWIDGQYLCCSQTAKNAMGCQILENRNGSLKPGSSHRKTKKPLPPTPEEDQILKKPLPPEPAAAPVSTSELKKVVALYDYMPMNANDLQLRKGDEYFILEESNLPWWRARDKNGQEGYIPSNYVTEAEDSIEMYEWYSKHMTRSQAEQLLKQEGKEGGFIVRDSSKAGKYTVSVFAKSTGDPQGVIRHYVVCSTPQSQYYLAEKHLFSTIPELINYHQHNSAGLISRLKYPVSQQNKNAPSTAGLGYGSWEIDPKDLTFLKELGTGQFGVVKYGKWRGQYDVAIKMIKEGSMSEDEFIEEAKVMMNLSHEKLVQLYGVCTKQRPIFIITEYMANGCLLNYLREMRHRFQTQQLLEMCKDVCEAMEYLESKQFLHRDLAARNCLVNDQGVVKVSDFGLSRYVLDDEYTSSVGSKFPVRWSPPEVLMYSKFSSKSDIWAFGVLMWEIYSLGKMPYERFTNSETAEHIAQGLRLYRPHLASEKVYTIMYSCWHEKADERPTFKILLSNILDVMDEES
pIC50: −log10 of the molar value.

{"Molecule": "CN1CCN(c2ccc(Nc3nc(N)c4cc(-c5c(Cl)cccc5Cl)c(=O)n(C)c4n3)cc2)CC1 [compound 19, IQS019]", "pIC50": 5.68}

* * *

- Study Target: UniProt P07948
- Sequence (P07948 2-512): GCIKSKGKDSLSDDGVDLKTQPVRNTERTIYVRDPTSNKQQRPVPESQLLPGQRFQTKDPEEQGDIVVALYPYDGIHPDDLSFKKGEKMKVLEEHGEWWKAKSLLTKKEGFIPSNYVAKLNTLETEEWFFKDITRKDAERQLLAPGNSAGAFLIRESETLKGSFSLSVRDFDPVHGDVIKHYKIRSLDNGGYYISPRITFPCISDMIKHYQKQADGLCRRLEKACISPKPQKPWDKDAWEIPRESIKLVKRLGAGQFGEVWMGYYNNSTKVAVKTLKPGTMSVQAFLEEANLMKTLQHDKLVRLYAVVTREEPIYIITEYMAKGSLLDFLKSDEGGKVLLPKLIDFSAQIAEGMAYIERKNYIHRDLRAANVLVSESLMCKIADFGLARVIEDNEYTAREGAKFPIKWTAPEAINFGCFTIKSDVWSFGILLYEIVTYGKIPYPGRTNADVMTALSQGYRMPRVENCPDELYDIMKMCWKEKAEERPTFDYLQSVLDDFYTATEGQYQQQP

{"Smiles Entry": "CN1CCN(c2ccc(Nc3nc(N)c4cc(-c5c(Cl)cccc5Cl)c(=O)n(C)c4n3)cc2)CC1", "IC50 [nM]": 150}

* * *

- Study Target: Syk (Homo sapiens)
pIC50: −log10 of the molar value.
Property Measured: pIC50

{"Smiles Entry": "CN1CCN(c2ccc(Nc3nc(N)c4cc(-c5c(Cl)cccc5Cl)c(=O)n(C)c4n3)cc2)CC1", "Recorded Value": 5.80}
